Source: ChEMBL document CHEMBL1201862

# System: RPMI-8226
# procedure text: NCI tumour cell line growth inhibition, 48 h
Active and inactive are the calls of the source. No stated cut-off is given here; in the data, active = GI50 up to about 1.1 µM and inactive = higher.
Bench note: report the call from active, inactive

# example entries with known answers
[[record]]
compound = "COc1ccc2[nH]c3c(c2c1)[C@H]1CCC(C(C)(C)C)C[C@H]1[C@H]1C(=O)N(c2ccccc2)C(=O)[C@@H]31 (some centres not stated)"
assigned_class = "inactive"

[[record]]
compound = "N=c1oc2cc(O)ccc2cc1C(=O)Nc1cccc2ccccc12"
assigned_class = "inactive"

[[record]]
compound = "CCSc1nnc(-c2ccccc2)nc1Cc1ccc(OC)cc1"
assigned_class = "inactive"

[[record]]
compound = "O=C(OCc1ccccc1)C1(N2CN(C3(C(=O)OCc4ccccc4)CCCC3)CN(C3(C(=O)OCc4ccccc4)CCCC3)C2)CCCC1"
assigned_class = "inactive"


For `Clc1cc(Cl)ncn1` , what call appears in the results of this test?
inactive

For `COC(=O)c1ccccc1CC1Cc2cc3c(cc2C1)CCC3` , what call appears in the results of this test?
inactive

For `C[C@H]1CC[C@@H]2[C@@H](C)C[C@H]3[C@@H]4C(C)(C)OC(=O)[C@]4(C)C(=O)[C@@]23C1=O` , what call appears in the results of this test?
inactive

For Cc1ccc(C2C(Cl)C(=O)N2NC(=O)c2ccc(N)cc2)cc1 (configuration not stated) , what call appears in the results of this test?
inactive

For `COc1cc(S(=O)(=O)Nc2ccc(-c3csc(/N=C\C=C\c4ccccc4)n3)cc2)ccc1Cl` , what call appears in the results of this test?
inactive

For COC(=O)C1=C(C[S+]([O-])c2ccccc2[N+](=O)[O-])ON(C)C1c1ccccc1 (configuration not stated) , what call appears in the results of this test?
inactive

For CC(C)(C)OC(=O)C1=C(O)C(C(=O)OC(C)(C)C)C23CCCCC12C(C(=O)OC(C)(C)C)C(O)=C3C(=O)OC(C)(C)C (configuration not stated) , what call appears in the results of this test?
inactive
